# Measured On: Zinc finger protein mex-5 (Caenorhabditis elegans)
# Protocol Description: MEX-5 zinc finger RNA-binding disruptors – biochemical, C. elegans, fluorescence polarization, MLPCN library, primary screen (AID 1832);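 further: 0% = DMSO and -100% = 5 µM competing unlabeled TCR2 RNA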
# Run Parameters: MEX-5/FITC-TCR2 RNA binding, at 10 µM, stronger effect = lower value
About 1,100 (0.37%) of roughly 300,000 compounds were called active. What follows is part of a selection rich in actives, with near analogues and random picks from the rest.
Readings of activity score (negative = inhibition of binding) for the listed molecules
Value Kind: activity score (negative = inhibition of binding) (%)

{"Molecule": "COc1ccc(CNC(=O)c2cc3c(=O)n4ccccc4nc3n(CC3CCCO3)c2=N)cc1 (stereo not given)", "Measured On": "Zinc finger protein mex-5 (Caenorhabditis elegans)", "Reported": -4.96}
{"Molecule": "O=C1Nc2ccccc2/C1=C/c1ccnc2ccccc12", "Measured On": "Zinc finger protein mex-5 (Caenorhabditis elegans)", "Reported": -0.239}
{"Molecule": "Cc1cc(C)c(/C=C2\\C(=O)Nc3ccccc32)[nH]1", "Measured On": "Zinc finger protein mex-5 (Caenorhabditis elegans)", "Reported": -49.3}
{"Molecule": "COC(C(=O)NCc1ccccc1C)c1ccccc1 (stereo not given)", "Measured On": "Zinc finger protein mex-5 (Caenorhabditis elegans)", "Reported": -0.406}
{"Molecule": "Cn1c(Nc2ccccc2)cc(=O)n(C)c1=O", "Measured On": "Zinc finger protein mex-5 (Caenorhabditis elegans)", "Reported": -3.14}
{"Molecule": "N#C[C@]1(S(=O)(=O)c2ccccc2)C[C@@H]2ON=C(c3cccc(Br)c3)[C@@H]2C1", "Measured On": "Zinc finger protein mex-5 (Caenorhabditis elegans)", "Reported": 1.51}
{"Molecule": "COc1ccc(C(=O)/C=C/c2ccc(-c3ccccc3)cc2)cc1CSCC(=O)O", "Measured On": "Zinc finger protein mex-5 (Caenorhabditis elegans)", "Reported": -31.8}
{"Molecule": "Cc1cc(C)c(C)c(S(=O)(=O)Nc2cccnc2)c1C", "Measured On": "Zinc finger protein mex-5 (Caenorhabditis elegans)", "Reported": 3.19}
{"Molecule": "O=C(Nc1cc2c3c(c1)C1CCCC1CN3CC1CCCC21)c1ccc([N+](=O)[O-])cc1 (stereo not given)", "Measured On": "Zinc finger protein mex-5 (Caenorhabditis elegans)", "Reported": 0.805}
{"Molecule": "COC(=O)c1ccc(COc2ccc(/C=C/C(=O)c3ccc(OC)c(CSCC(=O)O)c3)cc2OC)cc1", "Measured On": "Zinc finger protein mex-5 (Caenorhabditis elegans)", "Reported": -5.72}

----------
# Measured On: Zinc finger protein mex-5 (Caenorhabditis elegans)
# Protocol Description: MEX-5 zinc finger RNA-binding disruptors – biochemical, C. elegans, fluorescence polarization, MLPCN library, primary screen (AID 1832);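 further: 0% = DMSO and -100% = 5 µM competing unlabeled TCR2 RNA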
# Run Parameters: MEX-5/FITC-TCR2 RNA binding, at 10 µM, stronger effect = lower value
Screen size: about 300,000 compounds; about 1,100 (0.37%) were called active. Only a selection was taken, and actives are over-represented in it overall.
Readings of activity score (negative = inhibition of binding) for the listed compounds
Value Kind: activity score (negative = inhibition of binding) (%)

{"Compound": "Cc1nn(C(C)C(=O)N2CCOCC2)c(=O)c2nn(-c3ccccc3)c(C)c12 (stereo not given)", "Units Label": "%", "Reported": -34.7}
{"Compound": "Brc1cc(/C=N/n2cnnc2)oc1Br", "Units Label": "%", "Reported": 0.986}
{"Compound": "O=C1c2ccccc2C(Nc2ccc3c(c2)OCCO3)N1Cc1ccco1 (stereo not given)", "Units Label": "%", "Reported": -1.03}
{"Compound": "Cc1cc(NC(=O)Nc2ccccc2[N+](=O)[O-])no1", "Units Label": "%", "Reported": 0.456}
{"Compound": "O=C(Nc1ccc(C(=O)N2CCCCC2)cc1)c1cccc([N+](=O)[O-])c1", "Units Label": "%", "Reported": 1.72}
{"Compound": "C/[N+]([O-])=C\\c1ccc([N+](=O)[O-])o1", "Units Label": "%", "Reported": -3.97}
{"Compound": "Cc1ccnc(N2C(=O)c3ccc([N+](=O)[O-])cc3C2=O)c1", "Units Label": "%", "Reported": 0.424}
{"Compound": "CC(C)(C)OC(=O)N1CCC(C(=O)NNC(=O)c2ccc(Cl)cc2Cl)CC1", "Units Label": "%", "Reported": 0.105}
{"Compound": "COc1ccc(OC)c(-n2cc3c(=O)n(C)c(=O)n(C)c3c2)c1", "Units Label": "%", "Reported": -2.26}
{"Compound": "Cn1ccc(=Nc2ccc(NC(=O)c3ccc(N=c4ccn(C)c5ccc([N+](=O)[O-])cc45)cc3)cc2)cc1", "Units Label": "%", "Reported": -46.8}
